# Tested on: OVCAR-4 ovarian
# protocol.summary: NCI-60 one-dose screen, 48 h (100 = growth as untreated, 0 = no growth, -100 = all killed)
# condition.context: 10 µM unless noted
Compounds without any hit were thinned out: in the full panel of roughly 83,000, 20% have a hit.
# yes (1) = growth below 90% (exclusive); no (0) = growth at/above 90%

Q) growth strictly < 90% for this molecule? CC(C)(C)c1[nH]nc2c1C(c1cc3ccccc3[nH]c1=O)Nc1cc(C(=O)Nc3ccc(Cl)cc3)ccc1N2 (stereo not given)
A) yes (1)

Q) And what about the molecule Fc1ccc(Nc2ncnc3ccc(-c4cnc5[nH]ccc5c4)cc23)cc1Cl ?
A) yes (1)

Q) And what about the molecule O=C(NNC(=O)N1c2ccccc2C=Cc2ccccc21)c1ccccc1 ?
A) no (0)

Q) And what about the molecule Cc1ccc(S(=O)(=O)Nc2c(Br)cc(Br)cc2C(N)=O)cc1 ?
A) no (0)

Q) And what about the molecule CC(C)CSc1nc(NN)c(C#N)c(-c2ccccc2)n1 ?
A) yes (1)

Q) And what about the molecule O=C1/C(=C/c2ccc(Cl)cc2)CN(Cc2cn(CCNc3ccnc4cc(Cl)ccc34)nn2)C/C1=C\c1ccc(Cl)cc1 ?
A) yes (1)

Q) And what about the molecule Cc1nn(-c2ccc(Cl)cc2)c2ncnc(N/N=C/c3cccc([N+](=O)[O-])c3)c12 ?
A) no (0)

Q) And what about the molecule COc1cc([N+](=O)[O-])c2ncccc2c1O ?
A) no (0)

====

# Test system: SW-620 colon
# protocol.summary: NCI-60 one-dose screen, 48 h (100 = growth as untreated, 0 = no growth, -100 = all killed)
# condition.context: 10 µM unless noted
Compounds without any hit were thinned out: in the full panel of roughly 83,000, 20% have a hit.
metric.name: growth (%)
Give the value in % but do not write % after it.

Q) Any idea what growth came out for Fc1ccccc1-c1nc(-c2nc3cc(Cl)c(Cl)cc3[nH]2)c2ccccn12 on SW-620 colon?
A) 80.2

Q) And what about the molecule O=C(/C=C/c1cc(-c2ccc3c(c2)OCO3)n[nH]1)c1ccc2c(c1)OCO2 ?
A) 93.8

Q) And what about the molecule OC(c1cc2cc(Br)ccc2c2cc(Br)ccc12)C1CCCCN1 (configuration not stated) ?
A) -75

Q) And what about the molecule COc1ccc(C(=O)c2cc(OC)c3c(c2)OCO3)cc1O ?
A) 24.6

Q) And what about the molecule CCOC(=O)c1c(/N=C2\SC(=O)/C(=C\C(=O)OC)N2NC)sc2c1CCN(C(=O)OCC)C2 ?
A) 105

Q) And what about the molecule CCOC(=O)C1CCNC(=O)C1=O (configuration not stated) ?
A) 108

Q) And what about the molecule CCN(CC)c1ccc(/C=C2\Oc3ccc(O)c(I)c3C2=O)cc1 ?
A) 43.2

====

# Test system: NCI-H522 lung
# protocol.summary: NCI-60 one-dose screen, 48 h
# condition.context: 10 µM unless noted
The panel holds about 83,000 compounds, 20% with a hit somewhere; the sample as a whole holds those more often. Calls of active or inactive are those of the source. Rule for the calls: active = growth percent below 10; inactive = the rest.
Choose the fitting class; nothing outside 1 (yes) for active, 0 (no) for inactive is accepted.

Q) Look up the recorded call for C=C(C)[C@@H]1C[C@H](O)Cc2cc(F)ccc2N1 in this test.
A) 0 (no)

Q) And what about the compound CC(C)(C)NCCC(O)c1cc2c(Cl)cc(Cl)cc2c2cc(C(F)(F)F)ccc12 (stereo unspecified) ?
A) 1 (yes)

Q) And what about the compound COc1cc(-c2nn(C(=O)NS(=O)(=O)c3ccccc3)cc2-c2ccncc2)ccc1Cl ?
A) 0 (no)

Q) And what about the compound Cc1nc2ncccc2nc1Nc1ccc(S(=O)(=O)Nc2ccccn2)cc1 ?
A) 0 (no)

Q) And what about the compound Cc1ccc(S(=O)(=O)/C(=C\c2ccc(Cl)cc2)C(=O)c2ccccc2)cc1 ?
A) 0 (no)

Q) And what about the compound CCO/C=N/C1=C(C#N)C(c2ccc(Cl)cc2)c2c(c3ccccc3n(C)c2=O)O1 (stereo unspecified) ?
A) 0 (no)

Q) And what about the compound CNC(=S)NNC(=O)C1CC1 ?
A) 0 (no)

Q) And what about the compound Fc1ccc(CNCCNc2ncnc3c2cnn3-c2ccccc2)cc1 ?
A) 0 (no)

Q) And what about the compound COc1cc(/C=C/C(=O)c2c(C)nc3ccccc3c2C)ccc1OCCCCOc1cc2c(cc1OC)C(=O)N1CCC[C@H]1C=N2 ?
A) 1 (yes)

Q) And what about the compound COc1ccc(OC)c(/C=C2\Oc3cc(OCCCN4CCCC4)ccc3C2=O)c1 ?
A) 0 (no)

Q) And what about the compound N#Cc1c(-c2ccccc2)nc(SCC(=O)N2CCN(c3ccccc3)CC2)[nH]c1=O ?
A) 0 (no)

Q) And what about the compound Cn1ccc(Nc2nccc(Oc3ccc(C(=O)Nc4cccc(F)c4)c(Cl)c3)n2)c1 ?
A) 0 (no)

Q) And what about the compound CC(C)(C)c1[nH]nc2c1C(c1cc3ccccc3[nH]c1=O)Nc1cc(C(=O)Nc3ccc(Cl)cc3)ccc1N2 (stereo unspecified) ?
A) 0 (no)

Q) And what about the compound COc1ccc(-c2ccc(C)n2-c2ccc(-c3nc4cc(Cl)ccc4s3)cc2)cc1 ?
A) 0 (no)

Q) And what about the compound Cc1cc(C)n(-c2nnc3n2N=C(c2ccc(-c4ccccc4)cc2)CS3)n1 ?
A) 0 (no)

Q) And what about the compound CCOC(=O)CN1/C(=N/c2sc3c(c2C(=O)OCC)CCN(C(=O)OCC)C3)SC(=O)/C1=C\C(=O)OC ?
A) 0 (no)

Q) And what about the compound CN1CCN(CCCOc2ccc3nc(Nc4ccc(Cl)c(C(F)(F)F)c4)ccc3c2)CC1 ?
A) 0 (no)

Q) And what about the compound CCCCN(CCCC)C(=O)CC ?
A) 0 (no)

Q) And what about the compound Cc1cc(C2=NNC(=O)Cc3cc4c(cc32)OCCO4)cc(C)c1N ?
A) 1 (yes)

Q) And what about the compound S=C(S)NCCc1c[nH]c2ccccc12 ?
A) 0 (no)

Q) And what about the compound CC12CCCC(CC(=O)c3[nH]c4ccccc4c31)C2 (stereo unspecified) ?
A) 1 (yes)
